target: CYP2D6 (Homo sapiens); test: Inhibition of human microsomal CYP2D6 expressed in baculovirus infected insect cells at 10 uM using luciferin-ME as substrate preincubated with enzyme/substrate mixture for 30 mins followed by further incubation with NADPH for 30 mins by CYP450 luciferase Glo assay relative to control; type: ADME; details: probe luciferin-ME
Sequence (P10635 whole entry): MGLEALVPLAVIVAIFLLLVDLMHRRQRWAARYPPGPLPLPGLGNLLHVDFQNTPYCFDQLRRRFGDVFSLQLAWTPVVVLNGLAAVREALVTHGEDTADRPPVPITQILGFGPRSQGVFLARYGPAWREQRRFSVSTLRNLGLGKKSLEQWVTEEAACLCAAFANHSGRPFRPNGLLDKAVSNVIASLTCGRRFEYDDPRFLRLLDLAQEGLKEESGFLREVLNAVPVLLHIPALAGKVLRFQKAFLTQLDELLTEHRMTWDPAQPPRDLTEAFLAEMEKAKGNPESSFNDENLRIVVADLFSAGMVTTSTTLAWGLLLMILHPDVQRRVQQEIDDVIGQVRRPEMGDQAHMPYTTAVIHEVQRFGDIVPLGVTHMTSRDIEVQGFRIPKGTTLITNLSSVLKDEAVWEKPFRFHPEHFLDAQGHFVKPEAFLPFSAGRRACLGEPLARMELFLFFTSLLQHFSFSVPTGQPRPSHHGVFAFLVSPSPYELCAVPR
Parameter Measured: inhibition at 0.5 h, 10 µM (%)
One number for each entry, in %.

[[record]]
cpd_smiles = "COc1ccc2oc(-c3cccc(-c4ccc5c(c4)OCO5)c3)c(O)c(=O)c2c1"
number = 21.9

[[record]]
cpd_smiles = "COc1ccc2oc(-c3ccc4ncccc4c3)c(O)c(=O)c2c1"
number = -15.1

[[record]]
cpd_smiles = "O=c1c(O)c(-c2csc3ccccc23)oc2ccc(F)cc12"
number = 16.8


Query compound follows.
Problem: Bench note: what inhibition at 0.5 h, 10 µM did COc1ccc2oc(-c3csc4ccccc34)c(OC(=O)N(C)C)c(=O)c2c1 show?
Solution: 20.3
